Target: T1, IL10Rα and IL2Rγ on human primary cells (CD8 T cells, CD4 T cells, monocytes) (human) (UniProt Q13651)
T1 sequence (looked up) 1: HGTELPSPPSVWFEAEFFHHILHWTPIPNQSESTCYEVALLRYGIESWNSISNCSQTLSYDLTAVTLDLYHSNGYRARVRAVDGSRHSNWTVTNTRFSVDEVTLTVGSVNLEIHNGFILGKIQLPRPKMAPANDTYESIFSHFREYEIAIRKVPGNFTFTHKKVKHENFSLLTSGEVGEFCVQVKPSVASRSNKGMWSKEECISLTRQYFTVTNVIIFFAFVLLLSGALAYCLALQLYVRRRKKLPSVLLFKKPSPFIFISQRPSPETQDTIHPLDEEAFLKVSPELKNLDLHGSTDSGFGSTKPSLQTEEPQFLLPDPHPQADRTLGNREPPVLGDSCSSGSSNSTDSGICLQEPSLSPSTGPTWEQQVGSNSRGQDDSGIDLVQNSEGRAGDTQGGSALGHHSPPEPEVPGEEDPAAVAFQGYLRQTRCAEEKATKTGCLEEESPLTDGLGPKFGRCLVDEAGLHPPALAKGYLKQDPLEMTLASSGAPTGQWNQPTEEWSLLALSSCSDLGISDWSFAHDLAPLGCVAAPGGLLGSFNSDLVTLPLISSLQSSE
T1 sequence (looked up) 2: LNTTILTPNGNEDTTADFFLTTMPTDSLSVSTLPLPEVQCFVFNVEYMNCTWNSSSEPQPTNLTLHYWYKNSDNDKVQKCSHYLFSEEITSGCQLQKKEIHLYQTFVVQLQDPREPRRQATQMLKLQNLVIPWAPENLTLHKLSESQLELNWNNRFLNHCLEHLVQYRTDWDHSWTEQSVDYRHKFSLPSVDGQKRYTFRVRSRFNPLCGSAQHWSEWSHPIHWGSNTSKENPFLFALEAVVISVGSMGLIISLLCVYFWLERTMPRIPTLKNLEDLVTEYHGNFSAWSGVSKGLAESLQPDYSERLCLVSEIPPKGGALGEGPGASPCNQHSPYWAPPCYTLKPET
Assay: cell-based or functional assay
METRIC: pSTAT3 (MFI) in monocytes at 1 µM
Answers are plain numbers, in MFI.

Asked: Any idea what pSTAT3 (MFI) in monocytes at 1 µM was measured for hIL10Ra_VHH14-hIL2Rg_VHH19, linker GGGS, tag Fc (Fc fusion, not shown: a dimerising Fc or GST) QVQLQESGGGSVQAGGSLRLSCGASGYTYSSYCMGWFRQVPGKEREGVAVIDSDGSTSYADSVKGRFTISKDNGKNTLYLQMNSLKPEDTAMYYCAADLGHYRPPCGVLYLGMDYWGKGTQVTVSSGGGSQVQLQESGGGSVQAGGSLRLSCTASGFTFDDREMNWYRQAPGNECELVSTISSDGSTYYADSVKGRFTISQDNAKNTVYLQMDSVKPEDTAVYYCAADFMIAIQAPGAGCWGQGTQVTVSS ?
Given back: 5690
